Test system: ECHINOCHLOA CRUS-GALLI, (L) BEAU
Procedure Details: Postemergence herbicidal evaluation, ECHCG (Barnyardgrass)
Assay type: in vivo
Parameters: key: 0-9 visual rating scale vs untreated control
Stated Conditions: 0.031 kg/ha
Assay Metric: Herbicidal effect rating, ECHCG

                                   compound                     assay_metric  observed_measurement
0  COC(=O)Cn1c(=O)n(C)c(=O)n(-c2cc(Oc3ccc(C(F)(F)F)cc3Cl)ccc2[N+](=O)[O-])c1=O [Compound 3]  Herbicidal effect rating, ECHCG                   4.3
1  COC(=O)Cn1c(=O)n(C)c(=O)n(-c2cc(Oc3c(F)cc(C(F)(F)F)cc3Cl)ccc2F)c1=O [Compound 4]  Herbicidal effect rating, ECHCG                   3.8
2  Cn1c(=O)[nH]c(=O)n(-c2cc(Oc3ccc(C(F)(F)F)cc3Cl)ccc2[N+](=O)[O-])c1=O [B, reference compound]  Herbicidal effect rating, ECHCG                   1.0
3  Cn1c(=O)[nH]c(=O)n(-c2cc(Oc3c(F)cc(C(F)(F)F)cc3Cl)ccc2F)c1=O [C, reference compound]  Herbicidal effect rating, ECHCG                   0.0

Every entry's value here was drawn from patent EP0745595A1.
